experimental target: 17 DB-1
test protocol: CELIA on monoclonal 17 DB-1; coated antigen not given
pIC50: −log10 of the molar value. Where no end group is shown, it is not given here.
binders and their reported pIC50
reported metric: pIC50

binder: Ac-ISRRLIDRTNANFLC (not fully specified; printed as Ac-25I-S-R-R-L-I-D-R-T-N-A-N-F-L38-C) [GP4]
endpoint value: 6.74
//
binder: Ac-ISRRLIDRTNANFLVWPPC [GP10]
endpoint value: 5.52
